# credit: patent US8912227B1

Target: Human GPR120 short form (Homo sapiens)
Construct: expressed in transfected cells
Sequence (Q5NUL3 whole entry): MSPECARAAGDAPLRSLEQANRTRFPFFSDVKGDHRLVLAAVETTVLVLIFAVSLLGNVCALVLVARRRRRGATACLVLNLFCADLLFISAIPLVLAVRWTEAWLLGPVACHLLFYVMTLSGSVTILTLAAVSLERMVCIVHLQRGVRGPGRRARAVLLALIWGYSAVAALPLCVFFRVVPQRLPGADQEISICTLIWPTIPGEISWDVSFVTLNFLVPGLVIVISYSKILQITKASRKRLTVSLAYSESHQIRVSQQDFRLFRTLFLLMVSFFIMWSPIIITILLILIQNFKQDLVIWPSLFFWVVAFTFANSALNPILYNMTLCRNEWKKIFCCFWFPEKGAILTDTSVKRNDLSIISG
Test: Human GPR120 calcium flux assay, Procedure Calcium A
Type: cell-based
Conditions: HEK-293 cells expressing human GPR120 short form, 2500 cells/well, FLIPR
Source text: This in vitro assay serves to assess test compound agonist activity against the short splice variant (SVS with Accession number NM_001195755.1 confirmed by sequencing data) of the GPR120 receptor. […] Upon stimulation, intracellular released Ca^+2 can bind to the dye and alter its fluorescence intensity. This increase in fluorescence signal, and thus the flux in intracellular [Ca^2+], is detected and quantitated by fluorescence imaging using a FLIPR reader. […]
Value Kind: EC50 (µM)

{"columns": ["Compound", "Assay Target", "Measurement"],
 "data": [
  ["O=C(O)CCc1ccc(OCc2c(C(F)(F)F)ccn2-c2ccc(Cl)cc2)c(F)c1F [Compound 16]", "Human GPR120 short form (Homo sapiens)", 0.836]
]}

a: N#Cc1ccn(-c2ccc(Cl)cc2)c1COc1ccc(CCC(=O)O)c(F)c1F [Compound 9]
b: COc1ccc(-n2ccc(C(F)(F)F)c2COc2ccc(CCCO)c(C)c2C)cc1 [Compound 25]
Select the item with the higher value of EC50 from the options a and b listed. // output: label of the selected item
a
(a: 3.71 µM, b: 0.608 µM)

I: Cc1ccc(-n2ccc(C(F)(F)F)c2COc2c(F)cc(CCC(=O)O)cc2F)cc1 [Compound 39]
II: CCc1ccc(-n2ccc(C(F)(F)F)c2COc2ccc(CCC(=O)O)c(F)c2F)cn1 [Compound 58]
III: CCc1ccc(-n2ccc(C(F)(F)F)c2COc2c(F)cc(CCC(=O)O)cc2F)cn1 [Compound 56]
IV: Cc1ccc(-n2ccc(C(F)(F)F)c2COc2c(F)cc(CCCO)cc2F)cc1 [Compound 37]
Form: Sort by [EC50] Order [ ascending ] Please write the labels in the order that was asked for.
IV, I, II, III
(IV: 0.119 µM, I: 0.306 µM, II: 0.882 µM, III: 1.41 µM)

a: O=C(O)CCc1ccc(OCc2c(Cl)ccn2-c2ccc(Cl)cc2)c(F)c1F [Compound 11]
b: CCc1ccc(-n2ccc(C(F)(F)F)c2COc2ccc(CCCO)c(C)c2C)cc1 [Compound 40]
Given a and given b , which shows the smaller recorded EC50? Mark your selection by writing its label.
a
